Entries and their EC50
Test target: MPV pre-fusion F protein (conformationally stabilized, CAN97-83 MPV strain) (human metapneumovirus (hMPV), strain …, UniProt Q6WB98 19-489)
Sequence (Q6WB98 19-489): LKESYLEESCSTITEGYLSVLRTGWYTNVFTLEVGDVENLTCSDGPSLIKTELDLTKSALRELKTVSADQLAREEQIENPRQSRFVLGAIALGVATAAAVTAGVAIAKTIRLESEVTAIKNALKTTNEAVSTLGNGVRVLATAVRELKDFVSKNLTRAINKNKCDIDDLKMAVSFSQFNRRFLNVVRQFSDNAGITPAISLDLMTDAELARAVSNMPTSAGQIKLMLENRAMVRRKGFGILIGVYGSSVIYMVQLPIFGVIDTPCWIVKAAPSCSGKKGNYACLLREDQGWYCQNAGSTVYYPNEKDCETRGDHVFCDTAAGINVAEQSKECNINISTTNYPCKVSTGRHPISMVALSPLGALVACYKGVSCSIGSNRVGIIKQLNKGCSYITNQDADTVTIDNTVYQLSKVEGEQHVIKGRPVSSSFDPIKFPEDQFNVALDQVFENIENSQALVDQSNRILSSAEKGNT
Procedure text: ELISA
Just the number in ng/mL, nothing appended.

# annotated cases, reported EC50 shown
- Binder: "MPE33_S36A (antibody, V domains shown) VH: QVQLQESGPGLVKPSQTLSLTCTVSGDSISNGAYCWNWVRQPAGKGLEWIGRIYPIGNTNYNPSLKSRVTISLDTSKNQFSLKLASVTAADTAVYYCAREARIFEGYYYYYYGLDVWGQGTTVTVSS VL: EIVLTQSPATLSLSPGERATLSCRASQTISSYLAWYQQKPGQAPRLLISDVSKRATGIPARFSGSGSGTDFTLTISSLEPEDFAVYYCHQRSNWDTFGQGTKLEIK"
  EC50 [ng/mL]: 2.31
- Binder: "MPE33_N34S_C38Y (antibody, V domains shown) VH: QVQLQESGPGLVKPSQTLSLTCTVSGDSISSGSYYWNWVRQPAGKGLEWIGRIYPIGNTNYNPSLKSRVTISLDTSKNQFSLKLASVTAADTAVYYCAREARIFEGYYYYYYGLDVWGQGTTVTVSS VL: EIVLTQSPATLSLSPGERATLSCRASQTISSYLAWYQQKPGQAPRLLISDVSKRATGIPARFSGSGSGTDFTLTISSLEPEDFAVYYCHQRSNWDTFGQGTKLEIK"
  EC50 [ng/mL]: 2.87

Shifting focus to the binder that follows.
Ask: Bench note: what EC50 did MPE33_N34Q (antibody, V domains shown) VH: QVQLQESGPGLVKPSQTLSLTCTVSGDSISQGSYCWNWVRQPAGKGLEWIGRIYPIGNTNYNPSLKSRVTISLDTSKNQFSLKLASVTAADTAVYYCAREARIFEGYYYYYYGLDVWGQGTTVTVSS VL: EIVLTQSPATLSLSPGERATLSCRASQTISSYLAWYQQKPGQAPRLLISDVSKRATGIPARFSGSGSGTDFTLTISSLEPEDFAVYYCHQRSNWDTFGQGTKLEIK show?
Reply: 1.96
